system: RARg homodimer (NR concentration 270 nM); test: PBM binding z-score (relative to random genomic background probes); higher = stronger binding; sequences stand for … in GC…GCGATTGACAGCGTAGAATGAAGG
Each entry gets F if its PBM binding z-score stays under 2, and T if its PBM binding z-score is 2 or above.

>  <sequenceChain>
ATCTCTAGGTAGAAGTTCAGTGAATCCCGAGGAT

>  <className>
F

$$$$
>  <sequenceChain>
CTACAAAGGTGAACAAGGTCGTTGATTACTATTC

>  <className>
T

$$$$
>  <sequenceChain>
ACTTGCGGGTCAACGAGGTTATAGCACGCGTATA

>  <className>
T

$$$$
>  <sequenceChain>
CCGCCTGGGGCAAAGGTTACCATACTCAGTACGA

>  <className>
F

$$$$

Read the next record carefully.
Is the recorded value of PBM binding z-score equal to or greater than 2 for this sequence? CGTCAAATTTCAACTAAGGTAACGTAAAGCACGC
F

###

test system: LXRb homodimer (NR concentration 270 nM); experiment: PBM binding z-score (relative to random genomic background probes); higher = stronger binding; sequences stand for … in GC…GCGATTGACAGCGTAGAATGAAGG
Each entry gets 0 if its PBM binding z-score stays under -0.3, and 1 if its PBM binding z-score is -0.3 or above.

A selection of reference data follows.
>  <sequenceChain>
GCAGACAGGTGAAACGCAGATAACTCAGGGTGGC

>  <measuredTarget>
LXRb homodimer (NR concentration 270 nM)

>  <className>
0

$$$$
>  <sequenceChain>
ATCGAAAGGTCGTGAGGTGAGTATTCAGAAAGGC

>  <measuredTarget>
LXRb homodimer (NR concentration 270 nM)

>  <className>
1

$$$$
>  <sequenceChain>
TCAGCCAGGTGAAGGTAACTCAGGTACGCAGTCG

>  <measuredTarget>
LXRb homodimer (NR concentration 270 nM)

>  <className>
0

$$$$
>  <sequenceChain>
TGTCAAGGTTCAAAGGTAACGTAAGTATCCACAC

>  <measuredTarget>
LXRb homodimer (NR concentration 270 nM)

>  <className>
1

$$$$
>  <sequenceChain>
GCAGACAGGTGAACCGCAGGTAACTCAGGGTGGC

>  <measuredTarget>
LXRb homodimer (NR concentration 270 nM)

>  <className>
0

$$$$
>  <sequenceChain>
AGAACGAGGGGACGCTGAGTTGATAGCAGAGTAG

>  <measuredTarget>
LXRb homodimer (NR concentration 270 nM)

>  <className>
0

$$$$
>  <sequenceChain>
GGAACCAGGGCATTCGAGTTGATAGCATGGCGAT

>  <measuredTarget>
LXRb homodimer (NR concentration 270 nM)

>  <className>
1

$$$$
>  <sequenceChain>
TCGAGTAGGTTACCAATGGGACATTCAGCTTTCT

>  <measuredTarget>
LXRb homodimer (NR concentration 270 nM)

>  <className>
0

$$$$
>  <sequenceChain>
ATCTCTAGGTATAAGTTCAGTGAATCCCGAGGAT

>  <measuredTarget>
LXRb homodimer (NR concentration 270 nM)

>  <className>
1

$$$$
>  <sequenceChain>
CCCGCTAGGTCAATGGTCAGCTAAAGCAGCTCGC

>  <measuredTarget>
LXRb homodimer (NR concentration 270 nM)

>  <className>
1

$$$$

Read the next record carefully.
Is the recorded value of PBM binding z-score equal to or greater than -0.3 for this sequence? TGTCGAAGTTCAAAGGTAACGTAAGTATCCACAC
1
